experimental_details: Displacement of [125I]triiodothyronine from thyroid hormone receptor at 10 uM by scintillation counting
// classify(record): look up inhibition in ranges bucket A: < 2%; bucket B: ≥ 2% and < 6%; bucket C: ≥ 6%

INSERT INTO measurements (smiles_record, assigned_category) VALUES
  ('O=C(Nc1cc(Br)c(O)c(Br)c1)c1ccccc1O', 'bucket C'),
  ('O=C(Nc1cc(Br)c(O)c(Br)c1)c1cc(O)ccc1O', 'bucket C'),
  ('O=C(Nc1cc(Br)c(O)c(Br)c1)c1cc(F)ccc1F', 'bucket A'),
  ('O=C(Nc1cc(Br)c(O)c(Br)c1)c1ccccc1F', 'bucket A'),
  ('O=C(O)c1cccc(C(=O)Nc2cc(Br)c(O)c(Br)c2)c1', 'bucket A'),
  ('O=C(Nc1cc(Br)c(O)c(Br)c1)c1c(F)cccc1F', 'bucket C'),
  ('Cc1cc(C)cc(C(=O)Nc2cc(Br)c(O)c(Br)c2)c1', 'bucket B'),
  ('O=C(Nc1cc(Br)c(O)c(Br)c1)c1cccc(O)c1', 'bucket C'),
  ('O=C(Nc1cc(Br)c(O)c(Br)c1)c1cccc(F)c1', 'bucket B'),
  ('O=C(Nc1cc(Br)c(O)c(Br)c1)c1cccc(Cl)c1', 'bucket B'),
  ('O=C(Nc1cc(Br)c(O)c(Br)c1)c1ccccc1C(F)(F)F', 'bucket C'),
  ('Cc1ccc(C)c(C(=O)Nc2cc(Br)c(O)c(Br)c2)c1', 'bucket A'),
  ('COc1cc(OC)cc(C(=O)Nc2cc(Br)c(O)c(Br)c2)c1', 'bucket A'),
  ('Cc1ccccc1C(=O)Nc1cc(Br)c(O)c(Br)c1', 'bucket A'),
  ('COc1cccc(OC)c1C(=O)Nc1cc(Br)c(O)c(Br)c1', 'bucket A'),
  ('COc1ccccc1C(=O)Nc1cc(Br)c(O)c(Br)c1', 'bucket B'),
  ('O=C(Nc1cc(Br)c(O)c(Br)c1)c1cc(O)cc(O)c1', 'bucket A'),
  ('O=C(Nc1cc(Br)c(O)c(Br)c1)c1ccccc1Br', 'bucket C'),
  ('O=C(Nc1cc(Br)c(O)c(Br)c1)c1ccccc1Cl', 'bucket B'),
  ('O=C(Nc1cc(Br)c(O)c(Br)c1)c1cc(F)cc(F)c1', 'bucket C'),
  ('Nc1cccc(C(=O)Nc2cc(Br)c(O)c(Br)c2)c1', 'bucket A'),
  ('COc1c(Cl)cc(C(=O)Nc2cc(Br)c(O)c(Br)c2)cc1Cl', 'bucket C');

Where do the numbers come from? From ChEMBL document CHEMBL1140932.
